Target: kras g12d tr-fret (Homo sapiens, UniProt P01116, G12D)
Sequence (P01116 whole entry G12D): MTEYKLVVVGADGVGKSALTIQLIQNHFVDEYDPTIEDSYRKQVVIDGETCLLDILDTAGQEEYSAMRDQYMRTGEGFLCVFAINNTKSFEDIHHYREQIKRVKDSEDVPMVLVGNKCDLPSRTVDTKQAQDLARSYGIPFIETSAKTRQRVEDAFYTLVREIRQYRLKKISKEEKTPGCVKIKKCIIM
Test: KRAS G12D TR-FRET Assay
Recorded Endpoint: IC50 (nM)

Compound: N#Cc1c(N)sc2c(F)ccc(-c3c(Cl)cc4c(N5CCCC[C@@H](O)C5)nc(OC[C@@]56CCCN5C[C@H](F)C6)nc4c3F)c12
Recorded Endpoint: IC50
Observed Result: 4
//
Compound: N#Cc1c(N)sc2c(F)ccc(-c3c(Cl)cc4c(N5CCCC(C#N)CC5)nc(OC[C@@]56CCCN5C[C@H](F)C6)nc4c3F)c12 (some centres undefined)
Recorded Endpoint: IC50
Observed Result: 4
//
Compound: N#Cc1c(N)sc2c(F)ccc(-c3c(Cl)cc4c(N5CCCC6(CNC(=O)O6)C5)nc(OC[C@@]56CCCN5C[C@H](F)C6)nc4c3F)c12 (some centres undefined)
Recorded Endpoint: IC50
Observed Result: 3
//
Compound: N#Cc1c(N)sc2c(F)ccc(-c3c(Cl)cc4c(N5CC6CC(O)C(C6)C5)nc(OC[C@@]56CCCN5C[C@H](F)C6)nc4c3F)c12 (mixture of isomers)
Recorded Endpoint: IC50
Observed Result: 4
